The entries below are paired with their reported inhibition at 10 µM.
- MEASURED_TARGET: vanilloid receptor 1 (VR1/TRPV1) of the rat species (Rattus norvegicus, UniProt O35433)
- Construct: The spinal column is removed from beheaded rats; from tissue; host or cells: primary cells from rat dorsal root ganglia (DRGs)
- Sequence (O35433 whole entry): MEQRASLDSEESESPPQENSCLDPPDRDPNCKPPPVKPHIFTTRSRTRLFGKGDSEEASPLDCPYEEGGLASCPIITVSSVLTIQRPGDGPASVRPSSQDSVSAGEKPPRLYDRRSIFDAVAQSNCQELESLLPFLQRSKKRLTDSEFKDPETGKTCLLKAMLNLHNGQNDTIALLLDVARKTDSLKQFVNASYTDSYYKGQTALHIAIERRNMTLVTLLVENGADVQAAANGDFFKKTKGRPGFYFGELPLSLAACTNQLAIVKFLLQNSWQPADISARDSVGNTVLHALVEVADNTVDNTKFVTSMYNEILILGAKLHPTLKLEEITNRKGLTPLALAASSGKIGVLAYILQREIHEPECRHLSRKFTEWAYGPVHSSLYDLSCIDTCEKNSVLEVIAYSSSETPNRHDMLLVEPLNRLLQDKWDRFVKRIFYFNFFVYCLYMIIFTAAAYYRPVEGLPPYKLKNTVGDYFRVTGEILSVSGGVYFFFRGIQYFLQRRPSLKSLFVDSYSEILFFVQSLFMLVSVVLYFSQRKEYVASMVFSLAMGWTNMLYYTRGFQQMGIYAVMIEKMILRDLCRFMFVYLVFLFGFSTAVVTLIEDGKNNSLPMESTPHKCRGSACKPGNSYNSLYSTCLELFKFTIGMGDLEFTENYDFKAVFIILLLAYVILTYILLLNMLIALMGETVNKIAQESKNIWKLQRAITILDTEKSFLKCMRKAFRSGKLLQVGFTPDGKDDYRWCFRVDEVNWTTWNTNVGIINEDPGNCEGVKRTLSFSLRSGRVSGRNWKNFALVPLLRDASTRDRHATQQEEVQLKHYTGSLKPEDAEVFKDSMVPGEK
- TEST_DESCRIPTION: Functional study on vanilloid receptor 1, FLIPR Ca2+ assay in rat dorsal root ganglia cells
- Assay type: cell-based
- CONDITION_CONTEXT: test compound 10 μM, 5 min incubation, then 100 nM capsaicin; relative to maximum inhibition with 10 μM capsaicin; read-out: VR1 (rat) (% inhibition compared to 10 μM CP)
Where a name gives a salt, the structure may show the parent alone.
Express the result in % but write the number alone.

Entry under test: Br.Cc1ccc(C=C2SC(N3CCOCC3)=NC2=O)cc1 [Example 176, hydrobromide] . Its inhibition at 10 µM was 97.5

Entry under test: O=C1N=C(N2CCSCC2)SC1=Cc1ccccc1 . Its inhibition at 10 µM was 93.1

Entry under test: CC(=CC=C1SC(N2CCOCC2)=NC1=O)c1ccc(C)cc1 . Its inhibition at 10 µM was 64.8

Others:
Entry under test: CC(C)(C)c1ccc(C=C2SC(N3CCSCC3)=NC2=O)cc1 [Example 198, hydrobromide] . Its inhibition at 10 µM was 97.6

Entry under test: Cc1ccc(C=CC=C2SC(N3CCOCC3)=NC2=O)cc1 . Its inhibition at 10 µM was 31.4

Entry under test: CC(C)(C)c1ccc(C=C2SC(N3CCOCC3)=NC2=O)cc1 . Its inhibition at 10 µM was 94.3

Entry under test: O=C1N=C(N2CCSCC2)SC1=CC(Cl)=Cc1ccccc1 . Its inhibition at 10 µM was 77.1

Entry under test: O=C1N=C(N2CCOCC2)SC1=Cc1cccc2ccccc12 . Its inhibition at 10 µM was 34.7

Entry under test: CC(C)(C)c1ccc(C=C2SC(N3CCCC3)=NC2=O)cc1 [Example 199, hydrobromide] . Its inhibition at 10 µM was 69.5

Entry under test: O=C1N=C(N2CCOCC2)SC1=Cc1cccc(C(F)(F)F)c1 [Example 205, hydrobromide] . Its inhibition at 10 µM was 96.4

Entry under test: Cc1ccc(C=C2SC(N3CCSCC3)=NC2=O)cc1 [Example 14, hydrobromide] . Its inhibition at 10 µM was 82.1

Entry under test: O=C1N=C(N2CCOCC2)SC1=Cc1ccc(Br)cc1 . Its inhibition at 10 µM was 96.2

Entry under test: CC1CN(C(=O)c2cccc(C=C3SC(N4CCSCC4)=NC3=O)c2)CCN1c1ncccc1Cl (stereo not shown) . Its inhibition at 10 µM was 50.3

Entry under test: COc1ccc(C=C2SC(N3CCOCC3)=NC2=O)cc1OCc1ccccc1 . Its inhibition at 10 µM was 46.2

Entry under test: Cc1ccc(C=C2SC(N3CCN(c4ncccc4Cl)CC3)=NC2=O)cc1 . Its inhibition at 10 µM was 97

Entry under test: CCN(CC)c1ccc(C=C2SC(N3CCOCC3)=NC2=O)cc1 . Its inhibition at 10 µM was 9.3

Entry under test: O=C1N=C(N2CCSCC2)SC1=CC=Cc1ccccc1 . Its inhibition at 10 µM was 87.2

Entry under test: CC(C)(C)c1ccc(C=C2SC(N3CCCCCC3)=NC2=O)cc1 [Example 200, hydrobromide] . Its inhibition at 10 µM was 46.2

Entry under test: CC(C)c1ccc(C=C2SC(N3CCSCC3)=NC2=O)cc1 . Its inhibition at 10 µM was 96.9

Entry under test: O=C1N=C(N2CCCCCC2)SC1=CC=Cc1ccccc1 [Example 192, hydrobromide] . Its inhibition at 10 µM was 2.18

Entry under test: COCCNC1=NC(=O)C(=Cc2ccc(C(C)(C)C)cc2)S1 [Example 216, hydrobromide] . Its inhibition at 10 µM was 22.1

Entry under test: O=C1N=C(N2CCSCC2)SC1=Cc1cccc(C(=O)N2CCN(c3ncccc3Cl)CC2)c1 . Its inhibition at 10 µM was 90.1

Entry under test: O=C1N=C(N2CCOCC2)SC1=CC=Cc1ccccc1 [Example 189, hydrobromide] . Its inhibition at 10 µM was 5.61

Entry under test: CN(C)c1ccc(C=C2SC(N3CCOCC3)=NC2=O)cc1 . Its inhibition at 10 µM was 13.7

----------
- MEASURED_TARGET: vanilloid receptor 1 (VR1/TRPV1) of the rat species (Rattus norvegicus)
- Construct: The spinal column is removed from beheaded rats; from tissue; host or cells: primary cells from rat dorsal root ganglia (DRGs)
- TEST_DESCRIPTION: Functional study on vanilloid receptor 1, FLIPR Ca2+ assay in rat dorsal root ganglia cells
- Assay type: cell-based
- CONDITION_CONTEXT: test compound 10 μM; Ca2+ signal relative to 10 μM capsaicin (CP); read-out: VR1 (rat) (% stimulation compared to 10 μM CP)
Structures can show the parent of a compound that is named as a salt.
EXPERIMENTAL_READOUT: activation at 10 µM (%)
Express the result in % but write the number alone.

Entry under test: CCN(CC)c1ccc(C=C2SC(N3CCOCC3)=NC2=O)cc1 . Its activation at 10 µM was 102

Entry under test: O=C1N=C(N2CCOCC2)SC1=CC=Cc1ccccc1 [Example 189, hydrobromide] . Its activation at 10 µM was 6.64

Entry under test: O=C1N=C(N2CCOCC2)SC1=Cc1cccc2ccccc12 . Its activation at 10 µM was 40

Entry under test: O=C1N=C(N2CCOCC2)SC1=Cc1ccc(Br)cc1 . Its activation at 10 µM was 80.4

Entry under test: O=C1N=C(N2CCOCC2)SC1=CC=CSc1ccccc1 . Its activation at 10 µM was 54

Others:
Entry under test: O=C1N=C(N2CCOCC2)SC1=Cc1ccc(OS(=O)(=O)c2ccccc2)cc1 . Its activation at 10 µM was 57.9

Entry under test: COc1ccc(C=C2SC(N3CCOCC3)=NC2=O)cc1 . Its activation at 10 µM was 16

Entry under test: COCCNC1=NC(=O)C(=Cc2ccc(C(C)(C)C)cc2)S1 [Example 216, hydrobromide] . Its activation at 10 µM was 1.24

Entry under test: COc1cc(C=C2SC(N3CCSCC3)=NC2=O)ccc1O . Its activation at 10 µM was 31.2

----------
- MEASURED_TARGET: VR1 (human) (Homo sapiens)
- Construct: expressed in transfected cells; host or cells: CHO K1 cells (ECACC), stably transfected
- Sequence (Q8NER1 whole entry): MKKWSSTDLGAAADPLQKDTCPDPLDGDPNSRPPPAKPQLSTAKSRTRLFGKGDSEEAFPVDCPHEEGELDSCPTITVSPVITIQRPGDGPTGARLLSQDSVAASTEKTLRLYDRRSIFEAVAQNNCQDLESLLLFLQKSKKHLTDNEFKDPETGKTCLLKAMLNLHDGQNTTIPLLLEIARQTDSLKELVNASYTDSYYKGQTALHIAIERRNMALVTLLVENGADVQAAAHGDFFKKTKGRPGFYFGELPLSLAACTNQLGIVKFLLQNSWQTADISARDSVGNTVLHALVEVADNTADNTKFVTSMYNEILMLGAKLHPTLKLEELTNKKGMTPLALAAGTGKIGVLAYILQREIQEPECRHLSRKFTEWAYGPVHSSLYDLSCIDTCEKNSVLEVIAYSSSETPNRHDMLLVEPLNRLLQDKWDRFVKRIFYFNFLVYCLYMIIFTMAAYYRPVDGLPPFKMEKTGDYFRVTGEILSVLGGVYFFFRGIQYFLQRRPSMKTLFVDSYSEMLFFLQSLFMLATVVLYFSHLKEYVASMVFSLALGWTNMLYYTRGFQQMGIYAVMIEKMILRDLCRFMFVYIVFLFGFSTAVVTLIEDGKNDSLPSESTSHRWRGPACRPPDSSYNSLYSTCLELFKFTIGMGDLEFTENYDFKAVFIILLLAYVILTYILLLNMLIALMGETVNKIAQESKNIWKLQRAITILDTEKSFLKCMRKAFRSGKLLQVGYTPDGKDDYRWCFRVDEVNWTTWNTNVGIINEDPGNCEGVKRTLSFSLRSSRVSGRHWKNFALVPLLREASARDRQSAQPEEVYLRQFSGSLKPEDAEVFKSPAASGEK
- TEST_DESCRIPTION: Functional study on vanilloid receptor (VR1), FLIPR Ca2+ assay in CHO K1 cells stably transfected with the VR1 gene
- Assay type: cell-based
- CONDITION_CONTEXT: CHO-K1, test compound 10 μM; Ca2+ signal relative to 10 μM capsaicin (CP); read-out: VR1 (human) (% stimulation compared to 10 μM CP)
Structures can show the parent of a compound that is named as a salt.
# activation at 10 µM binned as class A = under 9%, class B = from 9% up to 50%, class C = 50% and over

Exam item: Bin? COc1cc(C=C2SC(N3CCN(c4ccccc4)CC3)=NC2=O)ccc1O [Example 68]
Marked response: class C

Exam item: Bin? O=C1N=C(N2CCCCC2)SC1=CC=Cc1ccccc1 [Example 191, hydrobromide]
Marked response: class B

Others:
Exam item: Bin? CC(=CC=C1SC(N2CCOCC2)=NC1=O)c1ccc(C(C)(C)C)cc1 [Example 34]
Marked response: class C

Exam item: Bin? O=C1N=C(N2CCSCC2)SC1=CC=Cc1ccccc1 [Example 25]
Marked response: class B

Exam item: Bin? O=C1N=C(N2CCOCC2)SC1=Cc1ccc(OS(=O)(=O)c2ccccc2)cc1 [Example 234]
Marked response: class B

Exam item: Bin? CC(C)(C)c1ccc(C=C2SC(N3CCCC3)=NC2=O)cc1 [Example 199, hydrobromide]
Marked response: class B

Exam item: Bin? CC(=CC=C1SC(N2CCOCC2)=NC1=O)c1cccc(C(F)(F)F)c1 [Example 44]
Marked response: class B

Exam item: Bin? O=C1N=C(N2CCSCC2)SC1=Cc1cccc(C(=O)N2CCN(c3nsnc3Cl)CC2)c1 [Example 115]
Marked response: class C

----------
- MEASURED_TARGET: vanilloid receptor 1 (VR1/TRPV1) of the rat species (Rattus norvegicus)
- Construct: The spinal column is removed from beheaded rats; from tissue; host or cells: primary cells from rat dorsal root ganglia (DRGs)
- TEST_DESCRIPTION: Functional study on vanilloid receptor 1, FLIPR Ca2+ assay in rat dorsal root ganglia cells
- Type: cell-based
- CONDITION_CONTEXT: test compound 10 μM, 5 min incubation, then 100 nM capsaicin; relative to maximum inhibition with 10 μM capsaicin; read-out: VR1 (rat) (% inhibition compared to 10 μM CP)
EXPERIMENTAL_READOUT: inhibition at 10 µM
A bare number is not enough; add the unit after it.

Example compounds with recorded inhibition at 10 µM:
Entry under test: O=C1N=C(N2CCSCC2)SC1=Cc1ccccc1C(F)(F)F . Its inhibition at 10 µM was 88.1%

Entry under test: Cc1ccc(C=C2SC(N3CCCC3)=NC2=O)cc1 . Its inhibition at 10 µM was 4.47%

Entry under test: O=C1N=C(N2CCOCC2)SC1=CC(=Cc1ccccc1)c1ccccc1 . Its inhibition at 10 µM was 21.3%

Others:
Entry under test: CCN(CC)C1=NC(=O)C(=Cc2cccc(C(F)(F)F)c2)S1 . Its inhibition at 10 µM was 50.1%

Entry under test: Cc1ccc(N2CCN(C3=NC(=O)C(=CC=Cc4ccccc4)S3)CC2)nn1 . Its inhibition at 10 µM was 17%

Entry under test: Cc1ccc(N2CCN(C3=NC(=O)C(=Cc4ccc(C(C)(C)C)cc4)S3)CC2)nn1 . Its inhibition at 10 µM was 54.1%

Entry under test: CC(=CC=C1SC(N2CCOCC2)=NC1=O)c1ccc(C(C)(C)C)cc1 . Its inhibition at 10 µM was 88%

Entry under test: O=C1N=C(N2CCOCC2)SC1=Cc1cccc(Oc2ccccc2)c1 . Its inhibition at 10 µM was 88%
